inhibition at 50 µM by entry:
target: PI-3 kinase γ (Homo sapiens, UniProt P48736); experiment: PI3Kγ inhibitory activity, PI3-kinase HTRF assay (inhibition ratio); assay type: biochemical; details: 0.5 h; PI3Kγ, compound at 50 μM
Sequence (P48736 whole entry): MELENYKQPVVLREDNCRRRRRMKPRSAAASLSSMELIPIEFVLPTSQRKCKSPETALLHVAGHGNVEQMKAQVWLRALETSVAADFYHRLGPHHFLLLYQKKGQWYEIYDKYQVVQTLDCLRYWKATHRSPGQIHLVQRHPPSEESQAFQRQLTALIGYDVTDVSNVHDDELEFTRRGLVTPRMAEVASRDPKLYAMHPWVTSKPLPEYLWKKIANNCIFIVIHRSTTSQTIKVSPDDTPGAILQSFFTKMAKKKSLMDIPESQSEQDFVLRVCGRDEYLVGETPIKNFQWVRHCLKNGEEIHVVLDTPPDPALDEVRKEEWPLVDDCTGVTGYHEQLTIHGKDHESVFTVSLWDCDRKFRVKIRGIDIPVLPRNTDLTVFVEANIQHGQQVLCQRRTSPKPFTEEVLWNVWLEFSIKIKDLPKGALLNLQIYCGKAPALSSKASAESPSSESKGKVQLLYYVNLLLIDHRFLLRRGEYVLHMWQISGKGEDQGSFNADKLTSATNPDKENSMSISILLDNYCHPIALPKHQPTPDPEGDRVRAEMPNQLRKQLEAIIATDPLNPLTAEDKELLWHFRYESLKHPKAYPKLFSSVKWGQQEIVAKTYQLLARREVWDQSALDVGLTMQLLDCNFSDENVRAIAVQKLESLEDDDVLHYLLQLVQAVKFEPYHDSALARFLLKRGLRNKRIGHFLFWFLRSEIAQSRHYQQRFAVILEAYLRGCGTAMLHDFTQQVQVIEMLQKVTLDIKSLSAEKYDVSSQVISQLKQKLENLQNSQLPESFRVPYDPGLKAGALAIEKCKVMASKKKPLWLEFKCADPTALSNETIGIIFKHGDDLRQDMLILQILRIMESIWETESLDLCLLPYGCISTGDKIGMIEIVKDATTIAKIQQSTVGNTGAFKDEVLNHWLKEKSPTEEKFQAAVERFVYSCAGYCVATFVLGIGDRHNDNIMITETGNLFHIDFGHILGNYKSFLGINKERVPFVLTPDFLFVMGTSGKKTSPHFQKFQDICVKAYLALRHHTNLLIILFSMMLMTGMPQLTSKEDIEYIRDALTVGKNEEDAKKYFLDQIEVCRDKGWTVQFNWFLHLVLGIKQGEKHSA

Answered examples (4):
sample_smiles=CCOC(=O)c1sc(N2CCn3nc(NC(=O)NC)cc32)nc1C metric="inhibition at 50 µM" assay_value=79%
sample_smiles=COc1cc(N2CCc3nc(NC(=O)NCCC(=O)OC(C)(C)C)sc3C2)nc(OC)n1 metric="inhibition at 50 µM" assay_value="≥ 95%"
sample_smiles=O=C(O)CCNC(=O)Nc1cc2n(n1)CCN2c1cccc(Cl)c1 metric="inhibition at 50 µM" assay_value="≥ 95%"
sample_smiles=CCOC(=O)c1ccc(N2CCn3nc(NC(=O)NC)cc32)cc1 metric="inhibition at 50 µM" assay_value="≥ 95%"

Item: "CNC(=O)Nc1cc2n(n1)CCN2c1cc(C(=O)OC)cc(-c2ccccc2)c1" Test system: PI-3 kinase γ (Homo sapiens, UniProt P48736) Read-out: inhibition at 50 µM Value: ?
≥ 95%

Item: "CNC(=O)Nc1cc2n(n1)CCN2c1cc(C(=O)N2CCOCC2)cc(C2=CCCCC2)c1" Test system: PI-3 kinase γ (Homo sapiens, UniProt P48736) Read-out: inhibition at 50 µM Value: ?
≥ 95%

Item: "CNC(=O)Nc1cc2n(n1)CCN2c1cccc(Cl)c1" Test system: PI-3 kinase γ (Homo sapiens, UniProt P48736) Read-out: inhibition at 50 µM Value: ?
≥ 95%

Item: "CNC(=O)Nc1cc2n(n1)CCN2c1ccncc1" Test system: PI-3 kinase γ (Homo sapiens, UniProt P48736) Read-out: inhibition at 50 µM Value: ?
≥ 95%

Item: "CNC(=O)Nc1nc2c(s1)CN(c1cc(C(=O)NCCO)nc(Cl)n1)CC2" Test system: PI-3 kinase γ (Homo sapiens, UniProt P48736) Read-out: inhibition at 50 µM Value: ?
≥ 95%

Item: "CNC(=O)Nc1cc2n(n1)CCN2c1ccc2cnccc2c1" Test system: PI-3 kinase γ (Homo sapiens, UniProt P48736) Read-out: inhibition at 50 µM Value: ?
≥ 95%

Item: "CNC(=O)Nc1cc2n(n1)CCN2c1cccc(C(C)=O)c1" Test system: PI-3 kinase γ (Homo sapiens, UniProt P48736) Read-out: inhibition at 50 µM Value: ?
≥ 95%

Item: "CNC(=O)Nc1cc2n(n1)CCN2c1cc(C#Cc2ccccc2)cc(C(=O)N2CCOCC2)c1" Test system: PI-3 kinase γ (Homo sapiens, UniProt P48736) Read-out: inhibition at 50 µM Value: ?
85%

Item: "CNC(=O)Nc1cc2n(n1)CCN2c1ccc2c(c1)NC(=O)CC2" Test system: PI-3 kinase γ (Homo sapiens, UniProt P48736) Read-out: inhibition at 50 µM Value: ?
≥ 95%

Item: "CC(C)(C)OC(=O)CCNC(=O)Nc1cc2n(n1)CCN2c1cccc(Cl)c1" Test system: PI-3 kinase γ (Homo sapiens, UniProt P48736) Read-out: inhibition at 50 µM Value: ?
80%

Item: "COc1cccc(C(=O)Nc2cc3n(n2)CCN3c2cccc(Cl)c2)c1" Test system: PI-3 kinase γ (Homo sapiens, UniProt P48736) Read-out: inhibition at 50 µM Value: ?
92%

Item: "CNC(=O)Nc1cc2n(n1)CCN2c1cc(Br)cc(C(=O)OC(C)(C)C)c1" Test system: PI-3 kinase γ (Homo sapiens, UniProt P48736) Read-out: inhibition at 50 µM Value: ?
92%

Item: "CNC(=O)Nc1cc2n(n1)CCN2c1ccc(F)c(OC)c1" Test system: PI-3 kinase γ (Homo sapiens, UniProt P48736) Read-out: inhibition at 50 µM Value: ?
≥ 95%

Item: "COc1cc(N2CCc3nc(NC(=O)[C@H](O)c4ccccc4)sc3C2)nc(OC)n1" Test system: PI-3 kinase γ (Homo sapiens, UniProt P48736) Read-out: inhibition at 50 µM Value: ?
83%

// data source = patent US20110230472A1
